Measurement Protocol: Pharmacokinetic profiles in rats
Type: in vivo
Experimental Setup: rat, plasma, iv dosing, 1 mg/kg
Reported Metric: half-life (h)

Field: example entries. Status: answers known.
| Smiles String | half-life (h) |
| --- | --- |
| O=C(Nc1ccc(Oc2ccnc(NC(=O)C3CC3)c2)cc1)c1c2n(n(-c3ccccc3)c1=O)CCOC2 | 7.09 |
| Nc1cc(Oc2ccc(NC(=O)c3c4n(n(-c5ccccc5)c3=O)CCC4)cc2)ccn1 | 1.51 |
| O=C(Nc1ccc(Oc2ccnc(NC(=O)C3CC3)c2)cn1)c1c2n(n(-c3ccccc3)c1=O)CCC2 | 5.01 |
| O=C(Nc1ccc(Oc2ccnc(NC(=O)C3CC3)c2)cc1)c1c2n(n(-c3ccccc3)c1=O)CCC2 | 7.71 |

[1] CC(=O)Nc1cc(Oc2ccc(NC(=O)c3c4n(n(-c5ccccc5)c3=O)CCOC4)nc2)ccn1
[2] CC(=O)Nc1cc(Oc2ccc(NC(=O)c3c4n(n(-c5ccccc5)c3=O)CCC4)cc2)ccn1
Req: Min half-life? 1 | 2 The response must carry the label of the picked entry.
Resp: 2

###

Measurement Protocol: Compound stability in human liver microsomes
Type: in vitro ADME
Experimental Setup: pH 7.4, 0.5 mg protein/mL, NADPH, 37° C.
Reported Metric: half-life (h)

| Smiles String | half-life [h] |
| --- | --- |
| O=C(Nc1ccc(Oc2ccnc(NC(=O)C3CC3)c2)cc1)c1c2n(n(-c3ccccc3)c1=O)CCC2 | 4.07 |

[P] Nc1cc(Oc2ccc(NC(=O)c3c4n(n(-c5ccccc5)c3=O)CCC4)cc2)ccn1
[Q] O=C(Nc1ccc(Oc2ccnc(NC(=O)C3CC3)c2)cn1)c1c2n(n(-c3ccccc3)c1=O)CCC2
[R] CC(=O)Nc1cc(Oc2ccc(NC(=O)c3c4n(n(-c5ccccc5)c3=O)CCC4)cc2)ccn1
Req: Your job: order these 3 records by half-life, ascending. Answer by listing the labels in the order asked for.
Resp: P, Q, R

###

Measurement Protocol: Pharmacokinetic profiles in rats
Type: in vivo
Experimental Setup: iv dosing, 1 mg/kg
Reported Metric: clearance (CL) (mL/min/kg)

| Compound | Units Label | Readout Value |
| --- | --- | --- |
| CC(=O)Nc1cc(Oc2ccc(NC(=O)c3c4n(n(-c5ccccc5)c3=O)CCOC4)nc2)ccn1 [Ex. 12] | mL/min/kg | 0.333 |

[P] CC(=O)Nc1cc(Oc2ccc(NC(=O)c3c4n(n(-c5ccccc5)c3=O)CCC4)cc2)ccn1 [Ex. 3]
[Q] O=C(Nc1ccc(Oc2ccnc(NC(=O)C3CC3)c2)cn1)c1c2n(n(-c3ccccc3)c1=O)CCC2 [Ex. 14]
[R] O=C(Nc1ccc(Oc2ccnc(NC(=O)C3CC3)c2)cc1)c1c2n(n(-c3ccccc3)c1=O)CCOC2 [Ex. 19]
Req: # ascending order, key=clearance (CL) Please respond with the labels ordered as the question requires.
Resp: R, P, Q

###

Measurement Protocol: Pharmacokinetic profiles in rats
Assay type: in vivo
Experimental Setup: rat, plasma, iv dosing, 1 mg/kg
Reported Metric: AUC(0-t) (ng·h/mL)

Guide cases for AUC(0-t), answers given:
| Smiles String | Units Label | Readout Value |
| --- | --- | --- |
| O=C(Nc1ccc(Oc2ccnc(NC(=O)C3CC3)c2)cc1)c1c2n(n(-c3ccccc3)c1=O)CCC2 | ng·h/mL | 27200 |
| O=C(Nc1ccc(Oc2ccnc(NC(=O)C3CC3)c2)cc1)c1c2n(n(-c3ccccc3)c1=O)CCOC2 | ng·h/mL | 50100 |

[A] CC(=O)Nc1cc(Oc2ccc(NC(=O)c3c4n(n(-c5ccccc5)c3=O)CCOC4)nc2)ccn1
[B] CC(=O)Nc1cc(Oc2ccc(NC(=O)c3c4n(n(-c5ccccc5)c3=O)CCC4)cc2)ccn1
[C] O=C(Nc1ccc(Oc2ccnc(NC(=O)C3CC3)c2)cn1)c1c2n(n(-c3ccccc3)c1=O)CCC2
[D] Nc1cc(Oc2ccc(NC(=O)c3c4n(n(-c5ccccc5)c3=O)CCC4)cc2)ccn1
Req: Sort the compounds on AUC(0-t); start with the lowest figure. Hello, could you send the labels back in the order asked? Thank you.
Resp: D, C, B, A
(D: 1190 ng·h/mL, C: 12900 ng·h/mL, B: 26300 ng·h/mL, A: 46700 ng·h/mL)

###

Quick record: IC50, Axl (h) (Homo sapiens, UniProt P30530).
Reported Metric: IC50 (nM)

| Smiles String | Units Label | IC50 |
| --- | --- | --- |
| O=C(Nc1ccc(Oc2ccnc(NC(=O)C3CC3)c2)cc1)c1c2n(n(-c3ccccc3)c1=O)CCOC2 | nM | 5 |

[P] Nc1nccc(Oc2ccc(NC(=O)c3c4n(n(-c5ccccc5)c3=O)CCCC4)nc2)c1Cl
[Q] CC(=O)Nc1cc(Oc2ccc(NC(=O)c3c4n(n(-c5ccccc5)c3=O)CCOC4)nc2)ccn1
[R] O=C(Nc1ccc(Oc2ccnc(NC(=O)C3CC3)c2)cn1)c1c2n(n(-c3ccccc3)c1=O)CCOC2
Req: List these items ordered by IC50, big to small. Returns: the labels listed in the requested order.
Resp: Q, P, R
(Q: 14 nM, P: 9 nM, R: 5 nM)

[a] Nc1nccc(Oc2ccc(NC(=O)c3c4n(n(-c5ccccc5)c3=O)CCCC4)cc2)c1Cl
[b] Nc1nccc(Oc2ccc(NC(=O)c3c4n(n(-c5ccccc5)c3=O)CCCC4)cc2F)c1Cl
Req: For the pair a and b , which member has the lower IC50 number? Give the label of your selection.
Resp: b
(b: 10 nM, a: 16 nM)

###

pIC50: −log10 of the molar value.
Data export: pIC50 values recorded with Mer (h) (Homo sapiens, UniProt Q12866).
Sequence (Q12866 21-999): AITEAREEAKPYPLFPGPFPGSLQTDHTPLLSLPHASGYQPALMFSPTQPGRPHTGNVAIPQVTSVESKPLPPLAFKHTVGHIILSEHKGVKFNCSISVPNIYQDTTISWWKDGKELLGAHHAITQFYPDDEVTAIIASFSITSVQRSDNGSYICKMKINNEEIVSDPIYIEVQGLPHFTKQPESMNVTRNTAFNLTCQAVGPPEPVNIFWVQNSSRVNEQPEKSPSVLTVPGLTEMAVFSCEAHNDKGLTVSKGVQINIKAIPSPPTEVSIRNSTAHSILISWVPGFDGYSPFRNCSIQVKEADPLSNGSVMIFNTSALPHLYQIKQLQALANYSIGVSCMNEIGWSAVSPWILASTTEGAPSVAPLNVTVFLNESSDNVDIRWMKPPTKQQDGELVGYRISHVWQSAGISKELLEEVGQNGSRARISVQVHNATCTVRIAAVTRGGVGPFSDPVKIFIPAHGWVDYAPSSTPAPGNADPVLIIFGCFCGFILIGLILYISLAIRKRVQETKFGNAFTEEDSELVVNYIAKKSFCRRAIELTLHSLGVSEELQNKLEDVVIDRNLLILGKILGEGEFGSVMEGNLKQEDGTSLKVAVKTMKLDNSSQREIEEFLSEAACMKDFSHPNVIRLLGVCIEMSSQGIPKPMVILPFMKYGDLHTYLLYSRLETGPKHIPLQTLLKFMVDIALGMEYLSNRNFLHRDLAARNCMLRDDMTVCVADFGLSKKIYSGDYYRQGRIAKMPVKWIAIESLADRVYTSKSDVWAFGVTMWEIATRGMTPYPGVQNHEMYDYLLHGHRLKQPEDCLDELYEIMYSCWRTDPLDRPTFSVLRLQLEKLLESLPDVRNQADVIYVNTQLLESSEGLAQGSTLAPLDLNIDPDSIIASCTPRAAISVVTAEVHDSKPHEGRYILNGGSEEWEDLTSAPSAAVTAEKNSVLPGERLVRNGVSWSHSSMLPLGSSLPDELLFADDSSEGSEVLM
Reported Metric: pIC50

Before answering, review these 6 worked examples.
| Smiles String | pIC50 |
| --- | --- |
| CC(=O)Nc1cc(Oc2ccc(NC(=O)c3c4n(n(-c5ccccc5)c3=O)CCOC4)nc2)ccn1 | 7.13 |
| O=C(Nc1ccc(Oc2ccnc(NC(=O)C3CC3)c2)c(F)c1)c1c2n(n(-c3ccccc3)c1=O)CCC2 | 8.40 |
| O=C(Nc1ccc(Oc2ccnc(NC(=O)C3CC3)c2)cc1)c1c2n(n(-c3ccccc3)c1=O)CCC2 | 8.52 |
| O=C(Nc1ccc(Oc2ccnc(NC(=O)C3CC3)c2)cn1)c1c2n(n(-c3ccccc3)c1=O)CCCC2 | 8.52 |
| CC(=O)Nc1cc(Oc2ccc(NC(=O)c3c4n(n(-c5ccccc5)c3=O)CCC4)cc2F)ccn1 | 7.48 |
| O=C(Nc1ccc(Oc2ccnc(NC(=O)C3CC3)c2)cc1)c1c2n(n(-c3ccccc3)c1=O)CCOC2 | 8.30 |

[1] O=C(Nc1ccc(Oc2ccnc(NC(=O)C3CC3)c2)cn1)c1c2n(n(-c3ccccc3)c1=O)CCOC2
[2] Nc1nccc(Oc2ccc(NC(=O)c3c4n(n(-c5ccccc5)c3=O)CCCC4)cc2F)c1Cl
Req: Select one: 1 or 2 . Criterion: greater recorded pIC50. Answer by stating the label of the chosen item.
Resp: 1

###

Listed here: compounds with reported IC50 for c-Met (h) (Homo sapiens, UniProt P08581).
Reported Metric: IC50 (nM)

| Smiles String | IC50 (nM) |
| --- | --- |
| O=C(Nc1ccc(Oc2ccnc(NC(=O)C3CC3)c2)cc1)c1c2n(n(-c3ccccc3)c1=O)CCC2 | 26 |

[1] CC(=O)Nc1cc(Oc2ccc(NC(=O)c3c4n(n(-c5ccccc5)c3=O)CCC4)cc2)ccn1
[2] O=C(Nc1ccc(Oc2ccnc(NC(=O)C3CC3)c2)cc1)c1c2n(n(-c3ccccc3)c1=O)CCOC2
[3] O=C(Nc1ccc(Oc2ccnc(NC(=O)C3CC3)c2)cn1)c1c2n(n(-c3ccccc3)c1=O)CCC2
Req: Would you mind ranking these compounds by ascending IC50? Note for the reader: the ranking is given by listing the labels in the order requested.
Resp: 3, 2, 1

###

Measurement Protocol: Pharmacokinetic profiles in rats
Format: in vivo
Experimental Setup: rat, plasma, po, bioavailability (F)
Reported Metric: bioavailability (%)

Sample answers from the record:
| Smiles String | bioavailability (%) |
| --- | --- |
| O=C(Nc1ccc(Oc2ccnc(NC(=O)C3CC3)c2)cc1)c1c2n(n(-c3ccccc3)c1=O)CCOC2 | 66.7 |
| O=C(Nc1ccc(Oc2ccnc(NC(=O)C3CC3)c2)cn1)c1c2n(n(-c3ccccc3)c1=O)CCC2 | 87.9 |

[A] Nc1cc(Oc2ccc(NC(=O)c3c4n(n(-c5ccccc5)c3=O)CCC4)cc2)ccn1
[B] CC(=O)Nc1cc(Oc2ccc(NC(=O)c3c4n(n(-c5ccccc5)c3=O)CCOC4)nc2)ccn1
Req: // returns A or B , whichever has the lower bioavailability Which one? Tell me its label.
Resp: B

###

Measurement Protocol: Pharmacokinetic profiles in rats
Assay type: in vivo
Experimental Setup: rat, plasma, iv dosing, 1 mg/kg, read-out: Vss
Reported Metric: Vd (L/kg)

In the examples that follow, each entry is paired with its recorded Vd.
| Compound | Readout Value |
| --- | --- |
| O=C(Nc1ccc(Oc2ccnc(NC(=O)C3CC3)c2)cn1)c1c2n(n(-c3ccccc3)c1=O)CCC2 [Ex. 14] | 0.359 |
| CC(=O)Nc1cc(Oc2ccc(NC(=O)c3c4n(n(-c5ccccc5)c3=O)CCC4)cc2)ccn1 [Ex. 3] | 0.18 |

[1] CC(=O)Nc1cc(Oc2ccc(NC(=O)c3c4n(n(-c5ccccc5)c3=O)CCOC4)nc2)ccn1 [Ex. 12]
[2] Nc1cc(Oc2ccc(NC(=O)c3c4n(n(-c5ccccc5)c3=O)CCC4)cc2)ccn1 [Ex. 1]
Req: Name the one with the greater Vd value, either 1 or 2 as given. Choose, then provide that item's label.
Resp: 2

[P] O=C(Nc1ccc(Oc2ccnc(NC(=O)C3CC3)c2)cc1)c1c2n(n(-c3ccccc3)c1=O)CCC2 [Ex. 2]
[Q] O=C(Nc1ccc(Oc2ccnc(NC(=O)C3CC3)c2)cc1)c1c2n(n(-c3ccccc3)c1=O)CCOC2 [Ex. 19]
Req: Which is greater in Vd, the first item P or the second item Q ? Provide the label of your selected option as the answer.
Resp: P
(P: 0.313 L/kg, Q: 0.15 L/kg)
